target-entity: HiBit-BRG1 fusion protein in stable HeLa cell line expressing HiBit-BRG1 and LgBit (Homo sapiens)
Construct: expressed in transfected cells
method-notes: HiBiT-BRG1 cell-based degradation assay (Nano-Glo HiBiT, 24 h)
assay-conditions: HeLa HiBit-BRG1/LgBit cells, top dose 30 μM, read-out: BRG1 HiBit Degradation Maximum (%)
Would you kindly list Dmax for each of these compounds?

Challenge: Quick one: Dmax for `Cc1ncsc1-c1ccc([C@H](C)NC(=O)[C@@H]2C[C@@H](O)CN2C(=O)[C@H](c2cc(-c3cnc(N4CC(c5cc(F)c6cc(-c7ccccc7O)nnc6c5)C4)nc3)no2)C(C)C)cc1` ?
Response given: < 50%

Challenge: If you can, please state the reported Dmax value of `Cc1ncsc1-c1ccc([C@H](C)NC(=O)[C@@H]2C[C@@H](O)CN2C(=O)[C@@H](c2cc(N3CCN([C@H]4CCN(Cc5ccc6nnc(-c7ccccc7O)cc6c5)CC4(F)F)CC3)no2)C(C)C)cc1` .
Response given: > 75%

Challenge: Data request, read-out Dmax, for `C#Cc1ccc([C@H](C)NC(=O)[C@@H]2C[C@@H](O)CN2C(=O)[C@@H](c2cc(N3CC4(CN(c5ccc6cc(-c7ccccc7O)nnc6c5)C4)C3)no2)C(C)C)cc1`
Response given: < 50%

Challenge: Dmax lookup needed for `Cc1ncsc1-c1ccc([C@H](C)NC(=O)[C@@H]2C[C@@H](O)CN2C(=O)[C@@H](c2cc(N3CCOC4(CCN(c5ccc6cc(-c7ccccc7O)nnc6c5)CC4)C3)no2)C(C)C)cc1` , thanks.
Response given: > 75%

Challenge: Given the entry Cc1ncsc1-c1ccc([C@H](C)NC(=O)[C@@H]2C[C@@H](O)CN2C(=O)C(C(C)C)n2cc(N3CCC4(CCN4c4ccc5cc(-c6ccccc6O)nnc5c4)C3)nn2)cc1 (stereo partly shown) , report its measured Dmax.
Response given: < 50%

Challenge: // returns reported Dmax for input `Cc1ncsc1-c1ccc([C@H](C)NC(=O)[C@@H]2C[C@@H](O)CN2C(=O)[C@@H](c2cc(N3CC4(C3)CN(c3cc5nnc(-c6ccccc6O)cc5cc3OC(F)F)C4)no2)C(C)C)cc1`
Response given: > 50%

Challenge: Give the measured Dmax of `Cc1ncsc1-c1ccc([C@H](C)NC(=O)[C@@H]2C[C@@H](O)CN2C(=O)[C@H](c2cc(-c3cnc(N4CCN(c5ccc6nnc(-c7ccccc7O)cc6c5)CC4)nc3)no2)C(C)C)cc1` .
Response given: > 75%

Challenge: Quick check: Dmax of `Cc1ncsc1-c1ccc([C@H](C)NC(=O)[C@@H]2C[C@@H](O)CN2C(=O)[C@H](C(C)C)n2cc(N3CC4(CN(c5ccc6cc(-c7ccccc7O)nnc6c5)C4)C3)nn2)cc1` ?
Response given: > 50%

Challenge: Entry under review: Cc1ncsc1-c1ccc([C@H](C)NC(=O)[C@@H]2C[C@@H](O)CN2C(=O)C(C(C)C)n2cc(N3CCC4CCN(c5ccc6cc(-c7ccccc7O)nnc6c5)C4C3)nn2)cc1 (stereo partly shown) . Reported Dmax?
Response given: > 75%

Challenge: Fill in: Dmax of `COC[C@H]1CN(c2cc([C@H](C(=O)N3C[C@H](O)C[C@H]3C(=O)N[C@@H](C)c3ccc(-c4scnc4C)cc3)C(C)C)on2)CCN1c1ccc2nnc(-c3ccccc3O)cc2c1` is ___
Response given: > 75%

----------
target-entity: HiBiT-BRM fusion protein in stable HeLa cell line (Homo sapiens)
Construct: expressed in transfected cells
Sequence (P51531 whole entry, the tested form may be a part): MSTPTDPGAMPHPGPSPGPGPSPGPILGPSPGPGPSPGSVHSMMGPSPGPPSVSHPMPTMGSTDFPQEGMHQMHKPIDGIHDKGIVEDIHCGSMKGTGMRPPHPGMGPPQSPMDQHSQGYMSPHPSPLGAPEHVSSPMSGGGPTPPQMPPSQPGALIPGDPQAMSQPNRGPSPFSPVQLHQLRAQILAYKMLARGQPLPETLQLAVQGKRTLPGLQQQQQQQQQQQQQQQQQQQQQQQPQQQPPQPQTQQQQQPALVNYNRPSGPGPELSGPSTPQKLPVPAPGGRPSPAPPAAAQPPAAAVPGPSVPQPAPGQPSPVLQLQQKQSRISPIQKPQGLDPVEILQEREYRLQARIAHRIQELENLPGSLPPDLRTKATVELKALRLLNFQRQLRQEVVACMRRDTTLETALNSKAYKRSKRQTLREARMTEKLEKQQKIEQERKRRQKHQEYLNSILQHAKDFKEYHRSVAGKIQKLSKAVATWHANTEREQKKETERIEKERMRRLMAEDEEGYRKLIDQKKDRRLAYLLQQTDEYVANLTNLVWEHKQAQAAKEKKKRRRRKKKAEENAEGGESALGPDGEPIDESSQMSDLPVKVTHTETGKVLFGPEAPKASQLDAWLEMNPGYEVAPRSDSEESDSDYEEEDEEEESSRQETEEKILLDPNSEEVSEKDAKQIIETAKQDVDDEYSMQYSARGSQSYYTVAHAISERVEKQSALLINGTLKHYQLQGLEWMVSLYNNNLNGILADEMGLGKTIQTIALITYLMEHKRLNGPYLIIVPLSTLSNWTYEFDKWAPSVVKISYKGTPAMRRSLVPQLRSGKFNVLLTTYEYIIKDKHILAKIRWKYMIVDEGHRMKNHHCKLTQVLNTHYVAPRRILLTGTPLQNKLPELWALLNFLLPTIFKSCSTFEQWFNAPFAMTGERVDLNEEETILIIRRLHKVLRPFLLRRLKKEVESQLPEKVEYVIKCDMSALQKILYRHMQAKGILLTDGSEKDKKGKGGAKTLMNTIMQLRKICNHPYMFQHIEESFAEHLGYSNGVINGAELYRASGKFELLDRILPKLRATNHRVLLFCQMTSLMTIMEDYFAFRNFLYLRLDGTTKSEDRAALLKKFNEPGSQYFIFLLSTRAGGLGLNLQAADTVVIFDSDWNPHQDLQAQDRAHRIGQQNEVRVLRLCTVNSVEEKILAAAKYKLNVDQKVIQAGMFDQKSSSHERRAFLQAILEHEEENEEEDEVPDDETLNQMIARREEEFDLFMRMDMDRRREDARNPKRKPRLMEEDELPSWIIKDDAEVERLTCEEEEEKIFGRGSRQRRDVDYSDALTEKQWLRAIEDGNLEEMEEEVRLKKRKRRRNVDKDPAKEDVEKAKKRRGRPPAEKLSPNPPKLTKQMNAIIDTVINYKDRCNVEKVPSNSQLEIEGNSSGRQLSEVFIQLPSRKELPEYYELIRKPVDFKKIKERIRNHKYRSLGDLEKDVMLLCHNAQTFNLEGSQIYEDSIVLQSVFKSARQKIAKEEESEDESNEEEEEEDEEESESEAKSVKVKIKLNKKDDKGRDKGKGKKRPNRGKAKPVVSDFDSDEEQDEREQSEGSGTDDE
method-notes: HiBiT-BRM cell-based degradation assay (Nano-Glo HiBiT Lytic Detection, 24 h)
Parameters: scale not given here
assay-conditions: HeLa HiBiT-BRM cells, read-out: BRM HiBit Degradation IC50
Give DC50 for every item shown.

Challenge: Entry under review: Cc1ncsc1-c1ccc([C@H](C)NC(=O)[C@@H]2C[C@@H](O)CN2C(=O)[C@H](C(C)C)n2cc(N3CC4(CN(c5ccc6nnc(-c7ccccc7O)cc6c5)C4)C3)nn2)cc1 [Compound 172] . Reported DC50?
Response given: < 10 nM

Challenge: Which measured DC50 value corresponds to Cc1cc(-c2cc([C@H](C(=O)N3C[C@H](O)C[C@H]3C(=O)N[C@@H](C)c3ccc(-c4scnc4C)cc3)C(C)C)on2)cnc1N1CCC(c2ccc3cc(-c4ccccc4O)nnc3c2)CC1 [Compound 88] ?
Response given: < 10 nM

Challenge: Endpoint output: DC50 of CNC(=O)[C@@H]1C[C@@H](O)CN1C(=O)[C@@H](c1cc(N2CC3(C2)CN(c2cc4nnc(-c5ccccc5O)cc4cc2OC)C3)no1)C(C)C [Compound 209] . Value?
Response given: < 10 nM

Challenge: Requested read-out: DC50. Entry: Cc1ncsc1-c1ccc([C@H](C)NC(=O)[C@@H]2C[C@@H](O)CN2C(=O)[C@@H](c2cc(N3CC4(C3)CN(c3cc5nnc(-c6ccccc6O)cc5cc3C3CC3)C4)no2)C(C)C)cc1 [Compound 126]
Response given: < 10 nM

Challenge: Name the reported DC50 value associated with the compound Cc1ncsc1-c1ccc([C@H](C)NC(=O)[C@@H]2C[C@@H](O)CN2C(=O)[C@H](c2cc(-c3cnc(N4CC(c5ccc6nnc(-c7ccccc7O)cc6c5Cl)C4)nc3)no2)C(C)C)cc1 [Compound 43]
Response given: > 100 nM

----------
Kindly supply the reported Dmax values for the records listed here.
target-entity: HiBit-BRG1 fusion protein in stable HeLa cell line expressing HiBit-BRG1 and LgBit (Homo sapiens, UniProt P51532)
Construct: expressed in transfected cells
Sequence (P51532 whole entry, the tested form may be a part): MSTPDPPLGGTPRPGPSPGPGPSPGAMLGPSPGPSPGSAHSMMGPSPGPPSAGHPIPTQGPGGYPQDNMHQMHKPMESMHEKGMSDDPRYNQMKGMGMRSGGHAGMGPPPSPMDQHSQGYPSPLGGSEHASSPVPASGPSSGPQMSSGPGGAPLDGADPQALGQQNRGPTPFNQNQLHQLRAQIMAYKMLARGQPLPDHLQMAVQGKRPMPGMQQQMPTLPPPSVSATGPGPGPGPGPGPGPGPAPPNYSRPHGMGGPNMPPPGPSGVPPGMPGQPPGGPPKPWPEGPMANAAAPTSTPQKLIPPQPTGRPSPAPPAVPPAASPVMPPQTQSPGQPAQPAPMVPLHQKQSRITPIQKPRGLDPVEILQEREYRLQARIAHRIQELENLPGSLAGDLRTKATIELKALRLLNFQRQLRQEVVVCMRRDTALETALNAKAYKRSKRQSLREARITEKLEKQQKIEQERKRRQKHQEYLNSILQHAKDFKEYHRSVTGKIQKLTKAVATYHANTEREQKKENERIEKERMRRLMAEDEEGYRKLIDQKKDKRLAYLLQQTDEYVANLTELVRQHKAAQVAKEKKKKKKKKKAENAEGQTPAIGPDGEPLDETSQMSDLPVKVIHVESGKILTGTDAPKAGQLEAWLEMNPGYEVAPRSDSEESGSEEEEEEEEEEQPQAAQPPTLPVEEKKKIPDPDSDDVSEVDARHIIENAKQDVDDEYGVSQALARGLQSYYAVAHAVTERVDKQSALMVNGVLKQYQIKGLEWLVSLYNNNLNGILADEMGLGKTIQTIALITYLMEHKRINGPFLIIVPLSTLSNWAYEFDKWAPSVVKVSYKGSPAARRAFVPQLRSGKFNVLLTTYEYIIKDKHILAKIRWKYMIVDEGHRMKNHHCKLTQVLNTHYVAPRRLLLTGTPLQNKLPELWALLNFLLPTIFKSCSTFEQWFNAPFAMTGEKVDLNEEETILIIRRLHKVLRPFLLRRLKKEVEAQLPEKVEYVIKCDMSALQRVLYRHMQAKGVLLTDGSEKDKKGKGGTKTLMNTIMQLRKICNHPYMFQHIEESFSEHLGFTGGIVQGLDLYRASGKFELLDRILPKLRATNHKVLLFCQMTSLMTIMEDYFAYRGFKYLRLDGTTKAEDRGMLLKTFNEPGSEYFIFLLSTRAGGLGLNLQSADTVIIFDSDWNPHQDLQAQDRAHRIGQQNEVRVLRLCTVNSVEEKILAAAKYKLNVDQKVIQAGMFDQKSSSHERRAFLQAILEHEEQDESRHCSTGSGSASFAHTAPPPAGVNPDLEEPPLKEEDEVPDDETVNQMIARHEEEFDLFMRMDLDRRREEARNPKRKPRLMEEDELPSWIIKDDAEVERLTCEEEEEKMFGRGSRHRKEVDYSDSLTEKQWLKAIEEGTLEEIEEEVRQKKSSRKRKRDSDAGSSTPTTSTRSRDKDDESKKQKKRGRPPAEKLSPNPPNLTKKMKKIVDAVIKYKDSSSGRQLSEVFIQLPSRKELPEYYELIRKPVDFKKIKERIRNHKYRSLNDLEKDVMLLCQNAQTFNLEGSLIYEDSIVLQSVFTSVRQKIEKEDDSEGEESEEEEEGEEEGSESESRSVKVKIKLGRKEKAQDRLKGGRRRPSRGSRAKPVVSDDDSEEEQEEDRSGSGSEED
method-notes: HiBiT-BRG1 cell-based degradation assay (Nano-Glo HiBiT, 24 h)
assay-conditions: HeLa HiBit-BRG1/LgBit cells, top dose 30 μM, read-out: BRG1 HiBit Degradation Maximum (%)
Method: Procedure: A stable HeLa cell line expressing HiBiT-BRM was generated. On day 0, 5000 cells were seeded in 40 μL of media into each well of 384-well cell culture plates. […] The plates were shaken for 10 minutes at room temperature and the bioluminescence read using an EnVision plate reader (PerkinElmer). […] The degradation % was calculated using the following formula: % degradation=100%−100%×(Lumsample−LumLC)/(LumHC−LumLC). […]

Challenge: Value lookup for Dmax; key = `Cc1ncsc1-c1ccc([C@H](C)NC(=O)[C@@H]2C[C@@H](O)CN2C(=O)[C@@H](c2cc(N3CCC4(CC3)CCN(c3ccc5cc(-c6ccccc6O)nnc5c3)C(=O)C4)no2)C(C)C)cc1`
Response given: < 50%

Challenge: Look up Dmax: `Cc1ncsc1-c1ccc([C@H](C)NC(=O)[C@@H]2C[C@@H](O)CN2C(=O)[C@@H](c2cc(N3CCN([C@@H]4CCN(c5ccc6cc(-c7ccccc7O)nnc6c5)CC4(F)F)CC3)no2)C(C)C)cc1`
Response given: > 75%

Challenge: What measured Dmax goes with `Cc1ncsc1-c1ccc([C@H](C)NC(=O)[C@@H]2C[C@@H](O)CN2C(=O)[C@@H](c2cc(N3CCCC4(CN(c5ccc6nnc(-c7ccccc7O)cc6c5)C4)C3)no2)C(C)C)cc1` ?
Response given: > 75%

Challenge: Returns the measured Dmax for the input molecule. Input: Cc1ncsc1-c1ccc([C@H](C)NC(=O)[C@@H]2C[C@@H](O)CN2C(=O)C(C(C)C)n2cc(N3CCC4(CC3)CN(c3ccc5cc(-c6ccccc6O)nnc5c3)C4)nn2)cc1 (stereo partly shown)
Response given: > 75%

Challenge: Could you share which Dmax value was measured for `Cc1ncsc1-c1ccc([C@H](C)NC(=O)[C@@H]2C[C@@H](O)CN2C(=O)[C@H](c2cc(-c3ccnc(N4CCC(c5ccc6nnc(-c7ccccc7O)cc6c5)CC4)n3)no2)C(C)C)cc1` ?
Response given: < 50%

Challenge: I would be grateful if you could share the reported Dmax for `Cc1ncsc1-c1ccc([C@H](C)NC(=O)[C@@H]2C[C@@H](O)CN2C(=O)[C@@H](c2cc(N3CC4(CCN4c4ccc5nnc(-c6ccccc6O)cc5c4)C3)no2)C(C)C)cc1` .
Response given: < 50%

Challenge: Looking for the measured Dmax of `CC(C)[C@@H](C(=O)N1C[C@H](O)C[C@H]1C(=O)N[C@@H](C)c1ccccc1F)c1cc(N2CC3(CN(c4ccc5cc(-c6ccccc6O)nnc5c4)C3)C2)no1` , can you help?
Response given: < 50%

Challenge: I have this molecule here, `Cc1ncsc1-c1ccc([C@H](C)NC(=O)[C@@H]2C[C@@H](O)CN2C(=O)[C@@H](c2cc(N3CC4(CN(c5ccc6nnc(-c7ccccc7O)cc6c5)CCO4)C3)no2)C(C)C)cc1` , and I need its recorded Dmax.
Response given: < 50%

Challenge: Which Dmax reading was recorded for the molecule `Cc1ncsc1-c1ccc([C@H](C)NC(=O)[C@@H]2C[C@@H](O)CN2C(=O)[C@@H](c2cc(N3CCC[C@H](c4ccc5cc(-c6ccccc6O)nnc5c4)C3)no2)C(C)C)cc1` ?
Response given: > 75%

Challenge: Which Dmax value is on record for `CC(C)[C@@H](C(=O)N1C[C@H](O)C[C@H]1C(=O)N[C@@H](C)c1ccc(F)cc1)c1cc(N2CC3(CC(c4cc5nnc(-c6ccccc6O)cc5cc4C(F)F)C3)C2)no1` ?
Response given: < 50%

These data points were gathered from patent US20260193264A1.
